Target: KRas G12C (Homo sapiens, UniProt P01116, G12C)
Sequence (P01116 1-169 isoform P01116-2 G12C): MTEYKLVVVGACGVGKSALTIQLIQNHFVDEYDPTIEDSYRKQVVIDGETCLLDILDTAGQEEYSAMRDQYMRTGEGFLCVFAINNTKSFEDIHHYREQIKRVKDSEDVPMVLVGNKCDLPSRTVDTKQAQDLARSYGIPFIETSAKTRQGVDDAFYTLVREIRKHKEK
Type: binding
Details: single point, 10 nM compound, read-out: Binding to KRas (% inhibition at 10 nM) G12C
ENDPOINT LABEL: inhibition at 0.01 µM (%)
Answer in %, number only, no unit symbol.

COMPOUND: CCc1c(F)ccc2cc(O)cc(N3CCc4c(nc(OC[C@@]56CCCN5C[C@H](F)C6)nc4N4CCCn5nc6c(c5C4)CCCN(C)C6=O)C3)c12 [Example 409]
STUDY TARGET: KRas G12C (Homo sapiens, UniProt P01116, G12C)
ENDPOINT LABEL: inhibition at 0.01 µM
MEASURED: 100
--
COMPOUND: CCc1c(F)ccc2cc(O)cc(N3CCc4c(nc(OC[C@@]56CCCN5C[C@H](F)C6)nc4N4CCCn5nc6c(c5C4)CCCNC6=O)C3)c12 [Example 415]
STUDY TARGET: KRas G12C (Homo sapiens, UniProt P01116, G12C)
ENDPOINT LABEL: inhibition at 0.01 µM
MEASURED: 100

Which inhibition at 0.01 µM value is on record for CCc1c(F)ccc2cc(O)cc(N3CCc4c(nc(OC[C@@]56CCCN5C[C@H](F)C6)nc4N4CCCn5nc(C(=O)NCCOCCOC)cc5C4)C3)c12 [Example 374] ?
99

###

Molecular target: KRas G12S (Homo sapiens, UniProt P01116, G12S)
Sequence (P01116 1-169 isoform P01116-2 G12S): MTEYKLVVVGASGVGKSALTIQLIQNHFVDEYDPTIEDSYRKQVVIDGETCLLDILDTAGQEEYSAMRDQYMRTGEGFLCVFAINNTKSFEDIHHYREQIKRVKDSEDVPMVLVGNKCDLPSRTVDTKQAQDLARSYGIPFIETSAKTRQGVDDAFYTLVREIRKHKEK
Type: binding
Conditions: TR-FRET displacement, read-out: Binding to KRas (IC50 nM) G12S
ENDPOINT LABEL: IC50 (nM)
The figure you give is taken to be in nM; do not add the unit.

These solved cases illustrate the format of a correct answer.
MOLECULE: CN1CCC[C@H]1COc1nc2c(c(N3CCCC4(CC(O)C4)C3)n1)CCN(c1cccc3cccc(Cl)c13)C2 (some centres unmarked) [Example 484]
STUDY TARGET: KRas G12S (Homo sapiens, UniProt P01116, G12S)
MEASURED: 2550
--
MOLECULE: CCc1cccc2cccc(N3CCc4c(nc(OCC5(CN(C)C)CC5)nc4NCCc4sc(N)nc4C)C3)c12 [Example 670]
STUDY TARGET: KRas G12S (Homo sapiens, UniProt P01116, G12S)
MEASURED: 1980
--
MOLECULE: CCc1cccc2cccc(N3CCc4c(nc(OCC5(CN(C)C)CC5)nc4N4CCCN(CC(F)(F)F)CC4)C3)c12 [Example 684]
STUDY TARGET: KRas G12S (Homo sapiens, UniProt P01116, G12S)
MEASURED: 1960
--
MOLECULE: CCc1cccc2cccc(N3CCc4c(nc(OCC5(CN(C)C)CC5)nc4N(C)Cc4nnnn4C)C3)c12 [Example 537]
STUDY TARGET: KRas G12S (Homo sapiens, UniProt P01116, G12S)
MEASURED: 5660
--
MOLECULE: CCc1cccc2cccc(N3CCc4c(nc(OCC5(CN(C)C)CC5)nc4NC4CN(c5nncs5)C4)C3)c12 [Example 674]
STUDY TARGET: KRas G12S (Homo sapiens, UniProt P01116, G12S)
MEASURED: 3700

# input molecule: CCc1cccc2cccc(N3CCc4c(nc(OCC5(CN(C)C)CC5)nc4NCCc4nnc(N)o4)C3)c12 [Example 671] ; wanted: its IC50
16500

What value of measured IC50 is listed for CCc1cccc2cccc(N3CCc4c(nc(OCC5(CN(C)C)CC5)nc4N4CCCC(n5ccc(C)n5)C4)C3)c12 (centres unmarked) [Example 535] ?
5060

Which value of IC50 has been reported for Cc1cc2[nH]ncc2c(N2CCc3c(nc(OC[C@@]45CCCN4C[C@H](F)C5)nc3N3CCC[C@]4(C3)NC(=O)NC4=O)C2)c1C [Example 450] in the records?
7

May I ask what IC50 has been recorded for CCc1cccc2cccc(N3CCc4c(nc(OCC5(CN(C)C)CC5)nc4NCC4COCC4n4cc(C(N)=O)nn4)C3)c12 (centres unmarked) [Example 705] ?
20500

Value lookup for IC50; key = C=C1CN2CC(=C)CC2(COc2nc3c(c(N4CCC[C@@](C)(O)C4)n2)CCN(c2cc(O)cc4ccc(F)c(CC)c24)C3)C1 [Example 582]
2

Query (molecule): CCc1cccc2cccc(N3CCc4c(nc(OCC56CCCN5CCC6)nc4N4CCC(O)CC(S(C)(=O)=O)C4)C3)c12 (single isomer, unassigned) [Example 479] ; field requested: IC50
56

# IC50 lookup, item CCc1cccc2cccc(N3CCc4c(nc(OCC5(CN(C)C)CC5)nc4NCc4ncc(C#N)c(N)n4)C3)c12 [Example 706]
2820

Any idea what IC50 was measured for Cc1cc2[nH]ncc2c(N2CCc3c(nc(OCC45CCCN4CCC5)nc3N3CCC[C@]4(C3)NC(=O)NC4=O)C2)c1C [Example 455] ?
4

###

Target: KRas Q61H (Homo sapiens, UniProt P01116, Q61H)
Sequence (P01116 1-169 isoform P01116-2 Q61H): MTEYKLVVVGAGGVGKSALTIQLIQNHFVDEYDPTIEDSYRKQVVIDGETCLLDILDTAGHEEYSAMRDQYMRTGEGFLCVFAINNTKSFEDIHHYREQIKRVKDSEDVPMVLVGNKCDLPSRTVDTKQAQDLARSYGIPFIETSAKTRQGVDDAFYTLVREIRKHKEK
Assay: KRas binding assay (TR-FRET displacement), KRas Q61H
Conditions: TR-FRET displacement
ENDPOINT LABEL: IC50 (nM)
Numbers only; they are read as nM.

Solved cases below.
COMPOUND: CCc1cccc2cccc(N3CCc4c(nc(OCC5(CN(C)C)CC5)nc4NCCc4nnc(N)o4)C3)c12
STUDY TARGET: KRas Q61H (Homo sapiens, UniProt P01116, Q61H)
IC50, nM: 30200
//
COMPOUND: CCc1cccc2cccc(N3CCc4c(nc(OCC5(CN(C)C)CC5)nc4NCc4ncc(C#N)c(N)n4)C3)c12
STUDY TARGET: KRas Q61H (Homo sapiens, UniProt P01116, Q61H)
IC50, nM: 3770
//
COMPOUND: CCc1cccc2cccc(N3CCc4c(nc(OCC5(CN(C)C)CC5)nc4NC4CCCc5[nH]ncc54)C3)c12 (stereo not drawn)
STUDY TARGET: KRas Q61H (Homo sapiens, UniProt P01116, Q61H)
IC50, nM: 18300
//
COMPOUND: Oc1cc(Cl)c(C2CC2)c(N2CCc3c(nc(OCC45CCCN4CCC5)nc3N3CC4CC(O)C(C4)C3)C2)c1 (stereo not drawn)
STUDY TARGET: KRas Q61H (Homo sapiens, UniProt P01116, Q61H)
IC50, nM: 87
//
COMPOUND: CCc1cccc2cccc(N3CCc4c(nc(OCC5(CN(C)C)CC5)nc4N(C)Cc4nnc5n4CCOC5)C3)c12
STUDY TARGET: KRas Q61H (Homo sapiens, UniProt P01116, Q61H)
IC50, nM: 4350
//
COMPOUND: CCc1cccc2cccc(N3CCc4c(nc(OCC5(CN(C)C)CC5)nc4N4CCC(F)C(OC)C4)C3)c12 (stereo not drawn)
STUDY TARGET: KRas Q61H (Homo sapiens, UniProt P01116, Q61H)
IC50, nM: 2400
//
COMPOUND: Cc1cc2[nH]ncc2c(N2CCc3c(nc(OCC45CCCN4CCC5)nc3N3CCCn4nc(C(=O)N(C)C)cc4C3)C2)c1C
STUDY TARGET: KRas Q61H (Homo sapiens, UniProt P01116, Q61H)
IC50, nM: 1060
//
COMPOUND: CCc1cccc2cccc(N3CCc4c(nc(OCC5(CN(C)C)CC5)nc4NCc4ccnn4C4CC4(F)F)C3)c12 (stereo not drawn)
STUDY TARGET: KRas Q61H (Homo sapiens, UniProt P01116, Q61H)
IC50, nM: 298

Let us examine a further case.
Given the entry CCc1cccc2cccc(N3CCc4c(nc(OCC5(CN(C)C)CC5)nc4N4CCN(C(=O)c5c[nH]c(=O)[nH]5)CC4)C3)c12 , report its measured IC50.
2170

###

Below: a set of entries, each annotated with reported inhibition at 0.01 µM.
Target: KRas WT (Homo sapiens, UniProt P01116)
Sequence (P01116 1-169 isoform P01116-2): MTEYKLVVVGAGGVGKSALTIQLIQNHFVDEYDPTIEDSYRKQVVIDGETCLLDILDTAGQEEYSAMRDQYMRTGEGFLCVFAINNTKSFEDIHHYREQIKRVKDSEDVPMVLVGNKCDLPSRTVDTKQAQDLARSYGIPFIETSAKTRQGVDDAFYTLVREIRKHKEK
Assay: KRas binding assay (TR-FRET displacement), KRas WT
Conditions: single point, 10 nM compound
# unit: % | format: bare number

Worked cases, inhibition at 0.01 µM given:
COMPOUND: CCc1c(F)ccc2cc(O)cc(N3CCc4c(nc(OC[C@@]56CCCN5C[C@H](F)C6)nc4N4CCCn5nc(C(=O)N(CC)CC)cc5C4)C3)c12
inhibition at 0.01 µM / %: 95

COMPOUND: CCc1c(F)ccc2cc(O)cc(N3CCc4c(nc(OC[C@@]56CCCN5C[C@H](F)C6)nc4N4CCCn5nc(C(=O)NC)c(Cl)c5C4)C3)c12
inhibition at 0.01 µM / %: 98

COMPOUND: CCc1c(F)ccc2cc(O)cc(N3CCc4c(nc(OC[C@@]56CCCN5C[C@H](F)C6)nc4N4CCCn5nc(NC(C)C)cc5C4)C3)c12
inhibition at 0.01 µM / %: 56

COMPOUND: CCc1c(F)ccc2cc(O)cc(N3CCc4c(nc(OC[C@@]56CCCN5C[C@H](F)C6)nc4N4CCCn5nc6c(c5C4)CCCN(C)C6=O)C3)c12
inhibition at 0.01 µM / %: 100

COMPOUND: CCc1c(F)ccc2cc(O)cc(N3CCc4c(nc(OC[C@@]56CCCN5C[C@H](F)C6)nc4N4CCCn5nc(C(=O)NC6CCC6)cc5C4)C3)c12
inhibition at 0.01 µM / %: 91

COMPOUND: CCc1c(F)ccc2cc(O)cc(N3CCc4c(nc(OC[C@@]56CCCN5C[C@H](F)C6)nc4N4CCCn5nc(C(=O)N6C7CCCC6CC7)cc5C4)C3)c12
inhibition at 0.01 µM / %: 93

COMPOUND: CCc1c(F)ccc2cc(O)cc(N3CCc4c(nc(OC[C@@]56CCCN5C[C@H](F)C6)nc4N4CCCn5nc(C(=O)NCCOCCOC)cc5C4)C3)c12
inhibition at 0.01 µM / %: 95

COMPOUND: CCc1c(F)ccc2cc(O)cc(N3CCc4c(nc(OC[C@@]56CCCN5C[C@H](F)C6)nc4N4CCCn5nc6c(c5C4)CCCNC6=O)C3)c12
inhibition at 0.01 µM / %: 99

Need inhibition at 0.01 µM, item CCc1c(F)ccc2cc(O)cc(N3CCc4c(nc(OC[C@@]56CCCN5C[C@H](F)C6)nc4N4CCCn5nc(C(=O)N(C)C)nc5C4)C3)c12
100

Looking for the measured inhibition at 0.01 µM of CCc1c(F)ccc2cc(O)cc(N3CCc4c(nc(OC[C@@]56CCCN5C[C@H](F)C6)nc4N4CCCn5nc6c(c5C4)CCCN6)C3)c12 , can you help?
55

Report inhibition at 0.01 µM for CCc1c(F)ccc2cc(O)cc(N3CCc4c(nc(OC[C@@]56CCCN5C[C@H](F)C6)nc4N4CCCn5nc(C(=O)N6CCC7CC76)cc5C4)C3)c12 (some centres unmarked) please.
97

Using the record for CCc1c(F)ccc2cc(O)cc(N3CCc4c(nc(OC[C@@]56CCCN5C[C@H](F)C6)nc4N4CCCn5nc(NC)c(OC)c5C4)C3)c12 , report its inhibition at 0.01 µM.
60

Item under review: CCc1c(F)ccc2cc(O)cc(N3CCc4c(nc(OC[C@@]56CCCN5C[C@H](F)C6)nc4N4CCCn5nc(C(=O)N6CC7CC6C7)cc5C4)C3)c12 . Reported inhibition at 0.01 µM?
96

Name the recorded inhibition at 0.01 µM for CCc1c(F)ccc2cc(O)cc(N3CCc4c(nc(OC[C@@]56CCCN5C[C@H](F)C6)nc4N4CCCn5nc(C(=O)NCCOC)cc5C4)C3)c12 .
93

inhibition at 0.01 µM lookup needed for CCc1c(F)ccc2cc(O)cc(N3CCc4c(nc(OC[C@@]56CCCN5C[C@H](F)C6)nc4N4CCCn5nc(NC)c(C)c5C4)C3)c12 , thanks.
53

Could you share which inhibition at 0.01 µM value was measured for CCc1c(F)ccc2cc(O)cc(N3CCc4c(nc(OC[C@@]56CCCN5C[C@H](F)C6)nc4N4CCCn5nc(C(=O)N6CC[C@@H]7CC[C@H]6C7)cc5C4)C3)c12 ?
92

Consider the compound shown here: CCc1c(F)ccc2cc(O)cc(N3CCc4c(nc(OC[C@@]56CCCN5C[C@H](F)C6)nc4N4CCCn5nc6c(c5C4)CCNC6=O)C3)c12 What is its recorded inhibition at 0.01 µM?
98
